Target: PI3Kα (wild-type), P110/P85α (Homo sapiens)
Sequence (P42336 whole entry): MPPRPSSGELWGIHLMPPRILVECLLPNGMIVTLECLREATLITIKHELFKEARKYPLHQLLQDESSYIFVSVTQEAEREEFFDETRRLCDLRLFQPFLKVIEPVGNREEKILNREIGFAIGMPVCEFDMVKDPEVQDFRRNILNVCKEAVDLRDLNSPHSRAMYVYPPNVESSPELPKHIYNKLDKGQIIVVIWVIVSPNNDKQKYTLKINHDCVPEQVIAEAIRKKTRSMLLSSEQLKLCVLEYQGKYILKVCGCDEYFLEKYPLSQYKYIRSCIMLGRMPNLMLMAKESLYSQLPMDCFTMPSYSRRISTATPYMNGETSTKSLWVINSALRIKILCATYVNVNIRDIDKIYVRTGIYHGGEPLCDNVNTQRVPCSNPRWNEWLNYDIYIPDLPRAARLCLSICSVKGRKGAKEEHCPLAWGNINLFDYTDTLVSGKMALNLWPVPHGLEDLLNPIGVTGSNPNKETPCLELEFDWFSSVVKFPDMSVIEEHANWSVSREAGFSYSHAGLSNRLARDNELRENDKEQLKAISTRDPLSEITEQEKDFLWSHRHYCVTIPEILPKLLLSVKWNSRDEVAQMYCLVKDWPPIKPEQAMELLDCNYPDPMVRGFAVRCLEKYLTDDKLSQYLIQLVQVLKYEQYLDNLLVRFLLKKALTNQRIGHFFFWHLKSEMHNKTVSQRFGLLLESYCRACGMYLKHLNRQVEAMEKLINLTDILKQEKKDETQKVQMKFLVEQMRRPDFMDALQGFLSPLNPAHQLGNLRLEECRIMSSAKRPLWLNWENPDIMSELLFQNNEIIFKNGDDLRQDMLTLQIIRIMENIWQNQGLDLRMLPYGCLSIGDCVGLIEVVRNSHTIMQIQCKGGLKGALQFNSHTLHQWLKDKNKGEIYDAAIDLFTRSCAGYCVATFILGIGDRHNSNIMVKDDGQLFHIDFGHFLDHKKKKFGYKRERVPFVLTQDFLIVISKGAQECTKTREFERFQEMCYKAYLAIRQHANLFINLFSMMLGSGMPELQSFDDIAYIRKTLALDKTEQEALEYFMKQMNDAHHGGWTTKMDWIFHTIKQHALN
Sequence (P27986 whole entry partner): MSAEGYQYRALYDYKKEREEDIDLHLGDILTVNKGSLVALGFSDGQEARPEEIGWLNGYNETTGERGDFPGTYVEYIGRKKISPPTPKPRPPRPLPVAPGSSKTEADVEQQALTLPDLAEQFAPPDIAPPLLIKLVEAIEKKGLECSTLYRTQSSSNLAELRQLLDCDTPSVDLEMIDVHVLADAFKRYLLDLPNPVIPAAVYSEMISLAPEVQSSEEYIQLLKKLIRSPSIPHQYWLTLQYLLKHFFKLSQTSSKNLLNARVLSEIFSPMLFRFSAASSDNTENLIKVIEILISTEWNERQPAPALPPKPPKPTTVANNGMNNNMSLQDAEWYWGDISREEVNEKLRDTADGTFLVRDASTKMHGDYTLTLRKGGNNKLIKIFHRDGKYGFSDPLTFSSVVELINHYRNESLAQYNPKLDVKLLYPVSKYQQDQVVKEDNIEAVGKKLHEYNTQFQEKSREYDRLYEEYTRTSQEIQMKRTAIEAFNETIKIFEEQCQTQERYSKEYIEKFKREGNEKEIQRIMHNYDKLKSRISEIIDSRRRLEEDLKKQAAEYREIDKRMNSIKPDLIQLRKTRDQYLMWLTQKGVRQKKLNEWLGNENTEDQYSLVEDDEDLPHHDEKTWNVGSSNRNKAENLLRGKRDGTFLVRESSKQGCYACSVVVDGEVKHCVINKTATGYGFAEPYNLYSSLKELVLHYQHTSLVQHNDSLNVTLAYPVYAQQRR
Assay: PI3 Kinase TR-FRET assay, PI3Kα (wild-type)
MEASURED_PROPERTY: IC50

N[C@H]1CCN(C(=O)c2ccc(NC(=O)Nc3ccc(-c4nc(N5CCOCC5)c5ccc(-c6cncnc6)cc5n4)cc3)cc2)C1 [Example 194]; < 50 nM
CN(C)C(=O)c1ccc(NC(=O)Nc2ccc(-c3nc(N4CCOCC4)c4ccc(-c5cccnc5)cc4n3)cc2)cc1 [Example 24]; < 50 nM
CN(C)C(=O)c1ccc(NC(=O)Nc2ccc(-c3nc(N4CCOCC4)c4cc(F)c(-c5cccc(S(C)(=O)=O)c5)cc4n3)cc2)cc1 [Example 36]; < 50 nM
Cc1ncccc1-c1ccc2c(N3CCOCC3)nc(-c3ccc(NC(=O)Nc4ccc(C(=O)N(C)C)cc4F)cc3)nc2c1 [Example 167]; < 50 nM
CN(C)C(=O)c1ccc(NC(=O)Nc2ccc(-c3nc(N4CCOCC4)c4ccc(-c5ccco5)cc4n3)c(F)c2)cc1 [Example 247]; 50 to 200 nM
CN(C)C(=O)c1ccc(NC(=O)Nc2ccc(-c3nc(N4CCOCC4)c4ncc(-c5cncnc5)cc4n3)c(F)c2)cc1 [Example 250]; < 50 nM
CN(C)C(=O)c1ccc(NC(=O)Nc2ccc(-c3nc(N4CCOCC4)c4ccc(-c5ccc(C(=O)N(C)C)o5)cc4n3)cc2)cc1 [Example 229]; < 50 nM
CN(C)C(=O)c1ccc(NC(=O)Nc2ccc(-c3nc(N4CCOCC4)c4ccc(-c5cnn(C)c5)cc4n3)cn2)c(F)c1 [Example 172]; < 50 nM
CN(C)C(=O)c1ccc(NC(=O)Nc2ccc(-c3nc(N4CCOCC4)c4ccc(-c5cncnc5)cc4n3)c(F)c2F)cc1 [Example 280]; 50 to 200 nM
CN(C)[C@@H]1CCN(C(=O)c2ccc(NC(=O)Nc3ccc(-c4nc(N5CCOCC5)c5ccc(-c6cncnc6)cc5n4)cc3)cc2)C1 [Example 187]; < 50 nM

Q: Notebook: pull reported IC50 for PI3Kα (wild-type), P110/P85α (Homo sapiens), entry CN(C)C(=O)c1ccc(NC(=O)Nc2ccc(-c3nc(N4CCOCC4)c4ncc(-c5cccnc5)cc4n3)cc2)cc1F [Example 264]
A: < 50 nM

Q: Provide value of IC50 for this record tested with PI3Kα (wild-type), P110/P85α (Homo sapiens): CN(C)C(=O)c1ccc(NC(=O)Nc2ccc(-c3nc(N4CCOCC4)c4ncc(-c5cnn(C)c5)cc4n3)cc2F)cn1 [Example 124]
A: < 50 nM

Q: Notebook: pull reported IC50 for PI3Kα (wild-type), P110/P85α (Homo sapiens), entry CN(C)CCNC(=O)c1ccc(-c2ccc3c(N4CCOCC4)nc(-c4ccc(NC(=O)Nc5ccc(C(=O)N(C)C)cc5)cc4)nc3c2)o1 [Example 225]
A: 50 to 200 nM

Q: For PI3Kα (wild-type), P110/P85α (Homo sapiens), provide IC50 of CC(=O)c1ccc(-c2ccc3c(N4CCOCC4)nc(-c4ccc(NC(=O)Nc5ccc(C(=O)N(C)C)cc5)cc4)nc3c2)o1 [Example 224] please.
A: < 50 nM

Q: Give the reported IC50 for CNC(=O)c1ccc(NC(=O)Nc2ccc(-c3nc(N4CCOCC4)c4ncc(-c5cnn(C)c5)cc4n3)cc2)cc1 [Example 89] (system: PI3Kα (wild-type), P110/P85α (Homo sapiens)).
A: < 50 nM

Q: What value of IC50 on PI3Kα (wild-type), P110/P85α (Homo sapiens) does Cc1ccc(-c2ccc3c(N4CCOCC4)nc(-c4ccc(NC(=O)Nc5ccc(C(=O)N(C)C)cc5)c(F)c4)nc3c2)o1 [Example 8] have?
A: 201 to 10000 nM

Q: Notebook: pull reported IC50 for PI3Kα (wild-type), P110/P85α (Homo sapiens), entry CN1CCN(C(=O)c2ccc(NC(=O)Nc3ccc(-c4nc(N5CCOCC5)c5ccc(-c6ccncc6)cc5n4)cc3)cc2)CC1 [Example 69]
A: < 50 nM

Q: Record lookup: for PI3Kα (wild-type), P110/P85α (Homo sapiens), what IC50 belongs to Cc1ccc(-c2ccc3c(N4CCOCC4)nc(-c4ccc(NC(=O)Nc5ccc(C(=O)N(C)C)cc5)cc4)nc3c2)s1 [Example 61] ?
A: 50 to 200 nM

Q: Under PI3Kα (wild-type), P110/P85α (Homo sapiens): IC50 value of O=C(Nc1ccc(C(=O)N2CCC(O)C2)cc1)Nc1ccc(-c2nc(N3CCOCC3)c3ccc(-c4ccco4)cc3n2)cc1 (centres unmarked) [Example 232] ?
A: < 50 nM

* * *

System: PC3 cells
Assay: XTT assay for cell viability, PC3 cells
Assay type: cell-based, human
Conditions: Homo sapiens, PC-3, cell viability
MEASURED_PROPERTY: IC50

See these solved cases before continuing.
CN(C)C(=O)c1ccc(NC(=O)Nc2ccc(-c3nc(N4CCOCC4)c4ccc(-c5cccc(S(C)(=O)=O)c5)cc4n3)cc2F)cc1; 201 to 10000 nM
COc1ncc(-c2cnc3c(N4CCOCC4)nc(-c4ccc(NC(=O)Nc5ccc(C(=O)N(C)C)cc5)c(F)c4)nc3c2)cn1; < 100 nM
N[C@@H]1CCN(C(=O)c2ccc(NC(=O)Nc3ccc(-c4nc(N5CCOCC5)c5ccc(-c6cncnc6)cc5n4)cc3)cc2)C1; 201 to 10000 nM
Cc1ccc(-c2ccc3c(N4CCOCC4)nc(-c4ccc(NC(=O)Nc5ccc(C(=O)NCCN(C)C)cc5)cc4)nc3c2)o1; 501 to 5000 nM
Cc1ccc(-c2cnc3c(N4CCOCC4)nc(-c4ccc(NC(=O)Nc5ccc(C(=O)N(C)C)cc5)cc4)nc3c2)o1; 100 to 500 nM
CN(C)C1CCN(C(=O)c2ccc(NC(=O)Nc3ccc(-c4nc(N5CCOCC5)c5ccc(-c6cncnc6)cc5n4)cc3F)cc2)C1 (stereo in doubt); < 100 nM
CN1CCN(C(=O)c2ccc(NC(=O)Nc3ccc(-c4nc(N5CCOCC5)c5ccc(-c6cccnc6)cc5n4)cc3)cc2)CC1; < 100 nM
CN(C)C(=O)c1ccc(NC(=O)Nc2ccc(-c3nc(N4CCOCC4)c4ccc(-c5cccnc5F)cc4n3)cc2)c(F)c1; 201 to 10000 nM
CN(C)C(=O)c1ccc(NC(=O)Nc2ccc(-c3nc(N4CCOCC4)c4ccc(-c5ccccn5)cc4n3)cc2)cc1; 201 to 10000 nM
CN(C)C(=O)c1ccc(NC(=O)Nc2ccc(-c3nc(N4CCOCC4)c4ccc(-c5ccc(C(C)(C)O)o5)cc4n3)cc2)cc1; 201 to 10000 nM

Consider now this further molecule.
Q: Which IC50 reading was recorded for the molecule "CN(C)C(=O)c1ccc(NC(=O)Nc2ccc(-c3nc(N4CCOCC4)c4ccc(-c5cccc(CO)c5)cc4n3)cc2)cc1" ?
A: < 100 nM

* * *

Reported pIC50 by item:
Biological target: PI3Kα (wild-type), P110/P85α (Homo sapiens)
Experiment: PI3 Kinase TR-FRET assay, PI3Kα (wild-type)
pIC50: −log10 of the molar value.

Previously resolved entries follow.
CN(C)C(=O)c1ccc(NC(=O)Nc2ccc(-c3nc(N4CCOCC4)c4ncc(-c5cccnc5F)cc4n3)cc2)cc1 [Example 78]; > 7.30
CC1CN(c2nc(-c3ccc(NC(=O)Nc4ccc(C(=O)N(C)C)cc4)c(F)c3)nc3cc(-c4cnn(C)c4)cnc23)CC(C)O1 (stereo not drawn) [Example 126]; 5.00 to 6.70
CN(C)C(=O)c1ccc(NC(=O)Nc2ccc(-c3nc(N4CCOCC4)c4ncc(-c5cccnc5)cc4n3)c(F)c2)cc1 [Example 261]; > 7.30
CN(C)CCNC(=O)c1ccc(NC(=O)Nc2ccc(-c3nc(N4CCOCC4)c4ccc(-c5ccco5)cc4n3)cc2)cc1 [Example 235]; > 7.30
CN(C)C(=O)c1ccc(NC(=O)Nc2cc(F)c(-c3nc(N4CCOCC4)c4ccc(-c5cncnc5)cc4n3)cc2F)cc1 [Example 279]; 6.70 to 7.30

Now look at this entry.
Q: Form field: reported pIC50 of CN(C)[C@@H]1CCN(C(=O)c2ccc(NC(=O)Nc3ccc(-c4nc(N5CCOCC5)c5ccc(C(C)(C)O)cc5n4)cc3)cc2)C1 [Example 288]
A: 6.70 to 7.30

* * *

Biological target: mTOR kinase (Homo sapiens, UniProt P42345)
MEASURED_PROPERTY: IC50

CN(C)C(=O)c1ccc(NC(=O)Nc2ccc(-c3nc(N4CCOCC4)c4ccc(-c5ccoc5)cc4n3)cc2)cc1 [Example 53]; 50 to 200 nM

Q: Look up IC50: Cc1nn(C)c(C)c1-c1ccc2c(N3CCOCC3)nc(-c3ccc(NC(=O)Nc4ccc(C(=O)N(C)C)cc4)cc3F)nc2c1 [Example 269]
A: < 50 nM

Q: Entry CS(=O)(=O)c1cccc(-c2ccc3c(N4CCOCC4)nc(-c4ccc(NC(=O)Nc5ccc(C(N)=O)cc5)cc4)nc3c2)c1 [Example 25] has what IC50?
A: 50 to 200 nM

Q: Entry Cc1ccc(-c2ccc3c(N4CCOCC4)nc(-c4ccc(NC(=O)Nc5ccc(C(=O)N(C)CCN(C)C)cc5)cc4)nc3c2)o1 [Example 63] : reported IC50 = ?
A: < 50 nM

Q: Requested field: IC50. Item: CN(C)C(=O)c1ccc(NC(=O)Nc2ccc(-c3nc(N4CCOCC4)c4ncc(-c5cncnc5)cc4n3)c(F)c2)cc1 [Example 250]
A: < 50 nM

Q: Give its IC50 value. Item: CN(C)[C@@H]1CCN(C(=O)c2ccc(NC(=O)Nc3ccc(-c4nc(N5CCOCC5)c5ncc(-c6cnn(C)c6)cc5n4)cc3)cc2)C1 [Example 184]
A: < 50 nM

Q: Given the molecule CN(C)C1CCN(C(=O)c2ccc(NC(=O)Nc3ccc(-c4nc(N5CCOCC5)c5ncc(-c6cnn(C)c6)cc5n4)cc3)cc2)C1 (stereo in doubt) [Example 185] , what is its reported IC50?
A: < 50 nM

Q: Name the recorded IC50 for Cc1ccc(-c2ccc3c(N4CCOCC4)nc(-c4ccc(NC(=O)Nc5ccc(C(=O)N(C)C)c(F)c5)cc4)nc3c2)o1 [Example 266] .
A: 50 to 200 nM
